- Method Notes: Trypan blue cell viability, 7 days, epidermal progenitors
- Type: cell-based
- Conditions Used: human, 50 μM, relative to control, read-out: epidermal progenitor viability after 7 days
Ends that are not written are not given here.
Items are presented alongside their recorded viability at 168 h, 50 µM.
// note: answer is a bare numeric in %

[
  {
    "Substance": "YRSRKYSSWY [decapeptide-12, YRSRKYSSWY]",
    "Units Text": "%",
    "viability at 168 h, 50 µM": 97.8
  }
]

Note: attention shifts to another entry.
In: // lookup viability at 168 h, 50 µM for Ac-YRSRKYSSWY-NH2 [P4C, Acetyl-YRSRKYSSWY-amide]
Out: 97.4

###

This listing pairs substances with measured viability at 168 h, 3 µM.
- Method Notes: Trypan blue cell viability, 7 days, melanoblasts
- Format: cell-based
- Conditions Used: human, 3 μM, relative to control, read-out: melanoblast viability after 7 days
Ends that are not written are not given here.
// units = %; emit number, no label

[
  {
    "Substance": "Ac-YRSRKYSSWY-NH2 [P4C, Acetyl-YRSRKYSSWY-amide]",
    "Units Text": "%",
    "viability at 168 h, 3 µM": 100
  }
]

In: Consider the substance YRSRKYSSWY [decapeptide-12, YRSRKYSSWY] and give its measured viability at 168 h, 3 µM.
Out: 100

###

- Method Notes: in vitro
- Format: cell-based
- Conditions Used: human, human epidermal progenitors
Ends that are not written are not given here.
Measurement Label: viability at 72 h, 500 µM (%)
Give the value in % but do not write % after it.

[
  {
    "Substance": "Ac-YRSRKYSSWY-NH2 [P4C, Acetyl-YRSRKYSSWY-amide]",
    "Measurement Label": "viability at 72 h, 500 µM",
    "Recorded Result": 96
  }
]

Next substance, viability at 72 h, 500 µM to be filled in.
In: Record request: viability at 72 h, 500 µM value, item YRSRKYSSWY [decapeptide-12, YRSRKYSSWY]
Out: 96

###

- Method Notes: Trypan blue cell viability, 7 days, fibroblasts
- Type: cell-based
- Conditions Used: human, 3 μM, relative to control, read-out: fibroblast viability after 7 days
- Experimental: The effect of each of the decapeptides upon cell viability was also tested. In particular, cells were incubated with the decapeptide at various concentrations and then counted for viability relative to the control (untreated cells) using trypan blue. Cytotoxicity was measured according to the following formula: [1−(# of cells in control−# of live cells in test sample)/# of cells in control]×100 percent.
Ends that are not written are not given here.
Each item that follows carries a reported viability at 168 h, 3 µM.
Use % as the unit, but write only the number.

[
  {
    "Substance": "YRSRKYSSWY [decapeptide-12, YRSRKYSSWY]",
    "viability at 168 h, 3 µM, %": 100
  }
]

For the next question, use this substance.
In: Any idea what its viability at 168 h, 3 µM is? The substance is Ac-YRSRKYSSWY-NH2 [P4C, Acetyl-YRSRKYSSWY-amide]
Out: 100

###

- Method Notes: Trypan blue cell viability, 7 days, fibroblasts
- Assay type: cell-based
- Conditions Used: human, 10 μM, relative to control, read-out: fibroblast viability after 7 days
Ends that are not written are not given here.
Below, each of the substances is paired with its reported viability at 168 h, 10 µM value.
Give the number; % is assumed, so skip it.

[
  {
    "Substance": "YRSRKYSSWY [decapeptide-12, YRSRKYSSWY]",
    "viability at 168 h, 10 µM (%)": 98.6
  }
]

Okay, now this substance:
In: Give the measured viability at 168 h, 10 µM of Ac-YRSRKYSSWY-NH2 [P4C, Acetyl-YRSRKYSSWY-amide] .
Out: 98.9

Reference for the values: patent US20180296456A1
